# assay system: FGFR3 enzyme (Homo sapiens (Human), UniProt P22607)
# Sequence (P22607 23-806): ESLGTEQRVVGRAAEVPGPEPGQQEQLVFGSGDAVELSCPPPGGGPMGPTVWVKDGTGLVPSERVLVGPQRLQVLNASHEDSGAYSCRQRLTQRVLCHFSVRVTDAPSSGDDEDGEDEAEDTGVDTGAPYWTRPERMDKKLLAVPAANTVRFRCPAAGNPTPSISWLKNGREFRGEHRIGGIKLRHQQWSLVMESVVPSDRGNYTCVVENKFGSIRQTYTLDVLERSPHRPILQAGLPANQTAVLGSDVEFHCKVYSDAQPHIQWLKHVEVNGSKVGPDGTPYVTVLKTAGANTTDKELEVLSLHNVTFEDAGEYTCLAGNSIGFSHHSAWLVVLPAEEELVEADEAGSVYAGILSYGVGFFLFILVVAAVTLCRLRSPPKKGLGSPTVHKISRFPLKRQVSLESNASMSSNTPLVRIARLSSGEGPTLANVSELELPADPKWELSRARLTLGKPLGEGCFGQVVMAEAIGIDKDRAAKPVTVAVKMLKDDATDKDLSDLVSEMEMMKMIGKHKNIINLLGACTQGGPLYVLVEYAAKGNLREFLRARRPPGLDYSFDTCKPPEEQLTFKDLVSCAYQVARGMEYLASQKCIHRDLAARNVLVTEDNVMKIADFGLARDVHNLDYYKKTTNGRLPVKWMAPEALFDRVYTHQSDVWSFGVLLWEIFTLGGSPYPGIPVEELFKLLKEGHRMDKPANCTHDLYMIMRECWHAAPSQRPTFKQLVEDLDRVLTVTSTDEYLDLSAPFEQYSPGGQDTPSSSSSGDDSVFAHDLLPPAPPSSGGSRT
# test details: FGFR Enzymatic Assay (peptide phosphorylation, FRET), FGFR3
# Format: biochemical
# conditions: IC50 ratio showing FGFR3 selectivity; pre-incubated for 4 hours
endpoint name: FGFR1/FGFR3

Field: example entries. Status: answers known.
compound=COc1cc(OC)c(F)c(N2Cc3cnc(-c4cn(C)nc4C)cc3N(c3ccc(-c4nnc(C)o4)cc3)C2=O)c1F endpoint_name=FGFR1/FGFR3 result_value=>3
compound=COc1cc(OC)c(F)c(N2Cc3cnc(-c4cn(C)nc4C)cc3N(c3cc(F)cc(F)c3)C2=O)c1F endpoint_name=FGFR1/FGFR3 result_value=>3
compound=COc1cc(OC)c(F)c(N2Cc3cnc(-c4cn(C)nc4C)cc3N(Cc3ccc(F)c(F)c3)C2=O)c1F endpoint_name=FGFR1/FGFR3 result_value=>5
compound=CCN1C(=O)N(c2c(F)c(OC)cc(OC)c2F)Cc2cnc(-c3ccc(C(C)(C)C#N)nc3)cc21 endpoint_name=FGFR1/FGFR3 result_value=>5
compound=COc1cc(N2C(=O)N(c3c(F)c(OC)cc(OC)c3F)Cc3cnc(-c4cn(C)nc4C)cc32)ccc1C#N endpoint_name=FGFR1/FGFR3 result_value=>5
compound=CCc1cnc(N2C(=O)N(c3c(F)c(OC)cc(OC)c3F)Cc3cnc(-c4cn(C)nc4C)cc32)cn1 endpoint_name=FGFR1/FGFR3 result_value=>3
compound=CNS(=O)(=O)c1cccc(N2C(=O)N(c3c(F)c(OC)cc(OC)c3F)Cc3cnc(-c4cn(C)nc4C)cc32)c1 endpoint_name=FGFR1/FGFR3 result_value=>3
compound=COc1cc(OC)c(F)c(N2Cc3cnc(-c4ccc(C5(C#N)CCC5)nc4)cc3N(c3ccncn3)C2=O)c1F endpoint_name=FGFR1/FGFR3 result_value=>5
compound=CCN1C(=O)N(c2c(F)c(OC)cc(OC)c2F)Cc2cnc(-c3ccc(N4CCOCC4)nc3)cc21 endpoint_name=FGFR1/FGFR3 result_value=>5

Field request: FGFR1/FGFR3 | item: COc1cc(OC)c(F)c(N2Cc3cnc(-c4cn(C)nc4C)cc3N(Cc3ccccn3)C2=O)c1F
>5

====

Kindly state FGFR2/FGFR4 for each of the entries shown.
# assay system: FGFR4 (Homo sapiens (Human))
# Sequence (P22455 22-802): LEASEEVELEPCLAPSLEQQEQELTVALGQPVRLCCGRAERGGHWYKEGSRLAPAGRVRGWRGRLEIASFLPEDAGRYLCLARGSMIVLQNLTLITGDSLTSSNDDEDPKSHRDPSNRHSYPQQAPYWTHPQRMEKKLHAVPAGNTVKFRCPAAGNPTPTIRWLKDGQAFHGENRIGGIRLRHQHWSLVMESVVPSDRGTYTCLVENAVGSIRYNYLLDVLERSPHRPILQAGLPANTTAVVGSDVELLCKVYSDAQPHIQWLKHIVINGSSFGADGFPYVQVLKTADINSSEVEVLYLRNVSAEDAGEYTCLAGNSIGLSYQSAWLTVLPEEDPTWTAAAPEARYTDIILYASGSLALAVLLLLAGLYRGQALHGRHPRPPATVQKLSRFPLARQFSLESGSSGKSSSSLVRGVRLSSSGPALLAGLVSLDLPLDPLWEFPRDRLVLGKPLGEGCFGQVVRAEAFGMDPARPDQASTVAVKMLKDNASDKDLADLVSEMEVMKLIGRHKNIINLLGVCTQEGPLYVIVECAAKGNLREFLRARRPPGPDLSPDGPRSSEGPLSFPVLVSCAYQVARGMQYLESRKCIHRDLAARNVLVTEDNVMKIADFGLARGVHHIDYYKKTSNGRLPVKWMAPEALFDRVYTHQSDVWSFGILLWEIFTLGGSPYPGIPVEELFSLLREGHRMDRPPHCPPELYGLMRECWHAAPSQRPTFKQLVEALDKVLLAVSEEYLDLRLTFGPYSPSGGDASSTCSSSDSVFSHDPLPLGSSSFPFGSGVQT
# test details: FGFR Enzymatic Assay (peptide phosphorylation, FRET), FGFR4
# Format: biochemical
# conditions: IC50 ratio showing FGFR4 selectivity; pre-incubated for 4 hours
# Procedure: The inhibitor potency of the exemplified compounds was measured in an enzyme assay that measures peptide phosphorylation using FRET measurements to detect product formation. Inhibitors were serially diluted in DMSO and a volume of 0.5 μL was transferred to the wells of a 384-well plate. The enzymes were purchased from Millipore or Invitrogen. GraphPad prism3 was used to analyze the data.

Field: example entries. Status: answers known.
compound=COc1cc(OC)c(F)c(N2Cc3cnc(-c4cncc(Cl)c4)cc3C3(CC3)C2=O)c1F result_value=>25
compound=COc1cncc(-c2cc3c(cn2)CN(c2c(F)c(OC)cc(OC)c2F)C(=O)C32CC2)c1 result_value=>25
compound=COc1cc(OC)c(F)c(N2Cc3cnc(-c4cc(N)cnc4C)cc3C3(CC3)C2=O)c1F result_value=>25

Dear reader, for each entry below, please note its FGFR2/FGFR4.
1. COc1cc(OC)c(F)c(N2Cc3cnc(-c4nn(CC#N)cc4C#N)cc3C3(CC3)C2=O)c1F
2. COc1cc(OC)c(F)c(N2Cc3cnc(-c4nn(CC5CCOCC5)cc4C#N)cc3C3(CC3)C2=O)c1F
3. COc1cc(OC)c(F)c(N2Cc3cnc(-c4cncc(N)c4)cc3C3(CC3)C2=O)c1F

[">10", ">100", ">10"]

Dear reader, for each entry below, please note its FGFR2/FGFR4.
1. COc1cc(OC)c(F)c(N2Cc3cnc(-c4nn(C)cc4C#N)cc3C3(CC3)C2=O)c1F
2. COc1cc(OC)c(F)c(N2Cc3cnc(-c4cncc(-n5ccnc5)c4)cc3C3(CC3)C2=O)c1F
3. COc1cc(OC)c(F)c(N2Cc3cnc(-c4cc(N)ccc4C#N)cc3C3(CC3)C2=O)c1F

1: >25; 2: >25; 3: >25
